molecular target: TGase (Cavia porcellus); format: biochemical
PARAMETER: TG-activity-inhibiting action or protein-crosslinking-inhibiting action (in words)

Previously resolved entries follow.
{"columns": ["SUBSTANCE_SMILES", "READING"],
 "data": [
  ["CCCCN(CCO)CCC(=O)c1ccc(Br)s1", "strongly"],
  ["CN(CCC(=O)c1ccncc1)Cc1ccccc1", "strongly"],
  ["Cc1ccc(C(=O)CCN(CCO)Cc2ccccc2)o1", "strongly"],
  ["CC(C)(C)N(CCC(=O)c1cccs1)Cc1ccccc1", "strongly"],
  ["C=CC(=O)c1ccc2c(C)cccc2c1", "high"]
]}

According to the records, this compound "CC(C)(C)N(CCC(=O)c1nccs1)Cc1ccccc1" displays TG-activity-inhibiting action or protein-crosslinking-inhibiting action (in words) of strongly

According to the records, this compound "CC(C)(C)N(CCC(=O)c1ccc(Cl)s1)Cc1ccccc1" displays TG-activity-inhibiting action or protein-crosslinking-inhibiting action (in words) of strongly

According to the records, this compound "CC(C)N(CCC(=O)c1ccc(Cc2ccccc2)cc1)Cc1ccccc1" displays TG-activity-inhibiting action or protein-crosslinking-inhibiting action (in words) of strongly

According to the records, this compound "Cc1ccc(C(=O)CCN(Cc2ccccc2)C(C)(C)C)o1" displays TG-activity-inhibiting action or protein-crosslinking-inhibiting action (in words) of strongly

According to the records, this compound "C=CC(=O)C(c1ccccc1)c1ccccc1" displays TG-activity-inhibiting action or protein-crosslinking-inhibiting action (in words) of high
